# measurement-notes: Circular dichroism (CD) spectroscopy of linear and stapled peptides in water or 40% TFE/water (Example 3)
# Assay type: physicochemical
# recorded-conditions: [θ]222/[θ]208 ratio in water; summary tables 15, 17, 19
Bridges are numbered along the chain shown (N, C = ends).
recorded-endpoint: [θ]222/[θ]208 ratio of ellipticities
Numbers only.

Prompt line: For the substance shown here, Ac-(cyclo-4,8)-VSK[ERSQK]VKRKQN-NH2 (Ac-VSKERSQKVKRKQN-NH2; lactam 4-8; SMILES CC(=O)N[C@H](C(=O)N[C@@H](CO)C(=O)N[C@@H](CCCCN)C(=O)N[C@H]1CCC(=O)NCCCC[C@@H](C(=O)N[C@H](C(=O)N[C@@H](CCCCN)C(=O)N[C@@H](CCCNC(=N)N)C(=O)N[C@@H](CCCCN)C(=O)N[C@@H](CCC(N)=O)C(=O)N[C@@H](CC(N)=O)C(N)=O)C(C)C)NC(=O)[C@H](CCC(N)=O)NC(=O)[C@H](CO)NC(=O)[C@H](CCCNC(=N)N)NC1=O)C(C)C) [Compound 150] , give the reported [θ]222/[θ]208 ratio of ellipticities.
Response line: 0.53

// data source = patent US10562935B2
